Origin of values: ChEMBL document CHEMBL1151109

# procedureText: Toxicity in brine shrimp
# Assay type: organism-based
# conditionContext: artemia, in vivo
metric: LC50 (µg/mL)
The response must be a number in µg/mL with no trailing unit.

Need LC50 of COc1cc(C)c(Oc2cc(C)cc(O)c2)c(O)c1 , thanks.
125
